protocolText: in vivo
conditionDetails: BALB/c, mouse, iv
quantityName: half-life

**Q:** Supply half-life value. Item: C[C@H](O)C(=O)Nc1c(I)c(C(=O)NC(CO)CO)c(I)c(C(=O)NC(CO)CO)c1I
**A:** < 1 h
